# targetEntity: T1, human ASIC2a (hASIC2a-eYFP) (Homo sapiens, UniProt Q16515)
# T1 construct: expressed in transfected cells; host or cells: CHO-K1 (transient)
# T1 sequence (Q16515 1-512): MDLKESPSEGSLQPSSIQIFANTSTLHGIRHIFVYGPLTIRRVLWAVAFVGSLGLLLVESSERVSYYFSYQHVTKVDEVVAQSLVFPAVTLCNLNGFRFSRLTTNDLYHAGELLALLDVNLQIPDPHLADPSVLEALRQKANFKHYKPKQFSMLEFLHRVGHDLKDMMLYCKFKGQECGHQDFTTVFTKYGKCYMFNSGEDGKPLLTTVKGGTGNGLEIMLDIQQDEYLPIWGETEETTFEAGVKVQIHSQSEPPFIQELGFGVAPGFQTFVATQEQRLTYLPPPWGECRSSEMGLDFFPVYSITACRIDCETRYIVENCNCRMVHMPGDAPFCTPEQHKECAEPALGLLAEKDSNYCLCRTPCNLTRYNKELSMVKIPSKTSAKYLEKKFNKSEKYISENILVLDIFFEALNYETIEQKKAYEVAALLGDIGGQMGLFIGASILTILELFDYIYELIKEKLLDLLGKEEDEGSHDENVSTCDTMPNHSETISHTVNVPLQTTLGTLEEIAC
# experimentSummary: FACS-based binding assay, transiently transfected CHO-K1 cells (isotype selectivity)
# Source text: To examine the ASIC isotype selectivity of ASC06-IgG1 affinity-matured antibodies, plasmids encoding fusion proteins of eYFP with isoforms of […] were constructed. These plasmids included those encoding human ASIC1b (hASIC1b-eYFP), human ASIC2a (hASIC2a-eYFP), and human ASIC3a (hASIC3a-eYFP). CHO-K1 cells were transiently transfected with these plasmids and used in a FACS-based binding assay disclosed herein. […]
propertyMeasured: binding to the hASIC2a isoform

molecule	propertyMeasured	resultValue
ASC06-03-IgG1: affinity-matured ASC06 derivative, VH-CDR3 DSFYGRAKGS (SEQ ID NO: 15) (antibody, V domains shown) VH: QVQLQQSGGGLVQPGGSLRLSCAASGFTFSSYAMSWVRQAPGKGLEWVSAISGSGGSTYYADSVKGRFTISRDNSKNTLYLQMNSLRAEDTAVYYCAKDSFYGRAKGSWGQGTLVTVSS VL: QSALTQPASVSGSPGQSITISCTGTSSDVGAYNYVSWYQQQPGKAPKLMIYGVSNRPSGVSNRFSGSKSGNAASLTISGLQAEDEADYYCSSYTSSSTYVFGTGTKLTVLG	binding to the hASIC2a isoform	no detectable binding
ASC06-02-IgG1: affinity-matured ASC06 derivative, VH-CDR3 DSFFGRAKGS (SEQ ID NO: 13) (antibody, V domains shown) VH: QVQLQQSGGGLVQPGGSLRLSCAASGFTFSSYAMSWVRQAPGKGLEWVSAISGSGGSTYYADSVKGRFTISRDNSKNTLYLQMNSLRAEDTAVYYCAKDSFFGRAKGSWGQGTLVTVSS VL: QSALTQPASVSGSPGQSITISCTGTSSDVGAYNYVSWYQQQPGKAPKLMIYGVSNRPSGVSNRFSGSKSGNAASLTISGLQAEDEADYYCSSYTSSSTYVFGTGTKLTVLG	binding to the hASIC2a isoform	no detectable binding
ASC06-01-IgG1: affinity-matured ASC06 derivative, VH-CDR3 DSYFGYSKGD (SEQ ID NO: 11) (antibody, V domains shown) VH: QVQLQQSGGGLVQPGGSLRLSCAASGFTFSSYAMSWVRQAPGKGLEWVSAISGSGGSTYYADSVKGRFTISRDNSKNTLYLQMNSLRAEDTAVYYCAKDSYFGYSKGDWGQGTLVTVSS VL: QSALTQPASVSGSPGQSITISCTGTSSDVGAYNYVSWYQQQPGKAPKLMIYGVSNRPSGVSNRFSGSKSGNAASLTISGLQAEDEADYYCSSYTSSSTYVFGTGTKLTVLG	binding to the hASIC2a isoform	no detectable binding
